Experiment: Turbidity, derived count rate of scattered light
Assay type: physicochemical
Settings: derived count rate of scattered light; mean, std deviation in separate column
Please respond with reported Zeta Count Rate / kcps for every item in the list.
Numeric answer only, unit kcps assumed.

Query block: For the sequence KIKIQINMWQ [JG1] , what Zeta Count Rate / kcps is on record?
Result block: 2196

Query block: For the sequence QCKFKFQFNM [CK8] , what Zeta Count Rate / kcps is on record?
Result block: 3669.6

Query block: For the sequence CKFKFQFNMWQ [BL2] , what Zeta Count Rate / kcps is on record?
Result block: 142.5

Query block: For the sequence CKIKIQINM [MG2] , what Zeta Count Rate / kcps is on record?
Result block: 4228

// provenance: paper PMC10447463
